- method-notes: binders of probe aFST on microarray, primary screen, stem cell growth factor project, biochemical, small-molecule microarray, fluorescence 635/667 (AID 1086);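 note: score merges 667 nm fluorescence with signal-to-noise of each printed compound spot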
- test-settings: higher = more signal
Reported composite z-score values for a set of molecules

molecule=C=CCN1C(=O)[C@@]2(O[C@@H](CCn3cc(CCO)nn3)[C@H]([Si](C)(C)c3ccc(OC)cc3)[C@H]2C)c2cc(N3C(=O)c4cccc5cccc3c45)ccc21 reported_result=0.42
molecule="NC(=O)N1C(=O)C2C(C1=O)C1C=C(c3ccc(CO)cc3)C2C(C2CC2)N1Cc1cc2c(cc1Br)OCO2 (stereo not given)" reported_result=0.0417
molecule=CCCC[C@@H](O)C1=C(C)C[C@H]2C(=O)N(C)C(=O)[C@H]2[C@H]1CO reported_result=-0.176
molecule=C=C(CCCC)/C(=C/C[C@H](OC(=O)c1ccncc1)c1ccc(CO)o1)c1cnc2ccccc2c1 reported_result=0.761

Measured composite z-score of COC(=O)c1c2oc(c1C(=O)OC)C(=O)N[C@@H](C(C)C)Cn1nncc1C1(CCCCC1)NC(=O)N[C@H](CO)CC2 : -0.103

Measured composite z-score of C=CCN1C(=O)[C@@]2(O[C@@H](CCO)[C@H]([Si](C)(C)c3ccc(OC)cc3)[C@H]2C)c2cc(N3C(=O)c4cccc5cccc3c45)ccc21 : -0.169

Measured composite z-score of O=C(NCC(F)(F)F)[C@@H]1c2ccccc2C(=O)N(C2Cc3ccccc3C2)[C@H]1c1ccc(CO)cc1 : -0.187

Measured composite z-score of CC(=O)NCCCC[C@@H]1NC(=O)[C@@H]2C[C@H](C(=O)O)[C@H](c3cccc(OCCO)c3)N2C1=O : 0.199

Measured composite z-score of C/C=C/[C@@H](CCn1cc(CCO[Si](C(C)C)(C(C)C)C(C)C)nn1)[Si](C)(C)c1ccc(OC)cc1 : -0.986

Where these numbers come from: PubChem BioAssay
